Please go through the items and note down their pIC50.
TARGET_DESC: recombinant tick kinin receptor (BMLK3) (Rhipicephalus microplus, UniProt Q9NHA4)
Sequence (Q9NHA4 entry or part of it): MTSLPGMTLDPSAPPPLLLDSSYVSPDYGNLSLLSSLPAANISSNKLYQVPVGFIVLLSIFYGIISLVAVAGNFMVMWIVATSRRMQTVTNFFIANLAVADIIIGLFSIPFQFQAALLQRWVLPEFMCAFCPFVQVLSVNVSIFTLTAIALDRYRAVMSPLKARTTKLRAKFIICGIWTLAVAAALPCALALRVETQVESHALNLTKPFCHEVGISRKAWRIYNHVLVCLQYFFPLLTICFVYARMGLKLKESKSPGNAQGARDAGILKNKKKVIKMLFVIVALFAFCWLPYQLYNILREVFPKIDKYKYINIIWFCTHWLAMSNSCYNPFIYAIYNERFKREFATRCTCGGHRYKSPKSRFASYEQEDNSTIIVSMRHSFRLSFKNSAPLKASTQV
METHOD_DESCRIPTION: Dose-response dual-addition calcium fluorescence assay on BMLK3 cells
Type: cell-based
PARTICULARS: summary of 36 validated antagonist hits; BMLK3 cells; read-out: BMLK3 IC50
Answers are plain numbers, as −log10 of the molar value.

Short answer for Cc1ccc(C=C2SC(=S)N(NS(=O)(=O)c3ccc(C)cc3)C2=O)cc1 : pIC50 was 6.29

Fill in pIC50 for each of the 3 compounds listed.
1. Cc1ccc(S(=O)(=O)NN2C(=O)C(=Cc3ccc(F)cc3)SC2=S)cc1
2. O=C1C(=Cc2ccccc2)SC(=S)N1NS(=O)(=O)c1ccccc1
3. C/C(CCC(C)C)=N\N=C(/S)NCc1ccccc1

6.20
5.72
5.37

Fill in pIC50 for each of the 3 compounds listed.
1. CSc1nc2ccc(NS(=O)(=O)c3ccc(Cl)s3)cc2s1
2. O=C(O)COc1ccc(Br)cc1/C=N/Nc1cccc2cccnc12
3. C[C@@](O)(C#Cc1ccccc1)c1ccc(N2CCCCC2)c(F)c1

5.14
5.07
4.76

----------
Please go through the items and note down their pEC50.
TARGET_DESC: recombinant tick kinin receptor (BMLK3) (Rhipicephalus microplus)
METHOD_DESCRIPTION: Dose-response dual-addition calcium fluorescence assay on BMLK3 cells
Format: cell-based
PARTICULARS: virtual hit molecules; dual-addition assay, recombinant tick kinin receptor (BMLK3) cells; read-out: BMLK3 EC50
Give bare numbers, as −log10 of the molar value.

Short answer for COc1ccc(S(=O)(=O)Nc2ccc(O)c(Sc3nc4ccccc4s3)c2)cc1 : pEC50 was 5.52

Short answer for c1ccc(-c2csc3ncnc(Nc4ccc5c(c4)OCCO5)c23)cc1 : pEC50 was 7.38

Short answer for CSc1nc2ccc(NS(=O)(=O)c3ccc(Cl)s3)cc2s1 : pEC50 was 5.27

Short answer for O=[N+]([O-])c1ccc2nc(Nc3ccc(Br)cc3)c(Nc3ccc(Br)cc3)nc2c1 : pEC50 was 5.97

Next:
Short answer for CN1/C(=C/C=C/c2ccc3ccccc3[n+]2C)C=Cc2ccccc21 : pEC50 was 6.49

----------
System: Human dermal fibroblasts (HDF) cells
METHOD_DESCRIPTION: Cytotoxicity assay (resazurin)
Format: cell-based
PARTICULARS: Human dermal fibroblasts cells; tested at 20 μcool L^−1
QUANTITY_KIND: HDF average % growth inhibition
Quote the value and follow it with the unit of measurement.

Fill in HDF average % growth inhibition for each of the 2 compounds listed.
1. Cc1ccc(C=C2SC(=S)N(NS(=O)(=O)c3ccc(C)cc3)C2=O)cc1
2. CCOc1cc(C=C2SC(=S)N(NS(=O)(=O)c3ccc(C)cc3)C2=O)ccc1O

["−1.013%", "2.02%"]

Fill in HDF average % growth inhibition for each of the 2 compounds listed.
1. C/C(CCC(C)C)=N\N=C(/S)NCc1ccccc1
2. Cc1ccc(S(=O)(=O)Nc2ccc3nc(N)sc3c2)cc1

7.327%
−7%

The compound CSc1nc2ccc(NS(=O)(=O)c3ccc(Cl)s3)cc2s1 , when measured on Human dermal fibroblasts (HDF) cells, yielded HDF average % growth inhibition of −1.16%

----------
TARGET_DESC: recombinant tick kinin receptor (BMLK3) (Rhipicephalus microplus)
METHOD_DESCRIPTION: Dose-response dual-addition calcium fluorescence assay on BMLK3 cells
Assay type: cell-based
PARTICULARS: 12 μM; BMLK3 cells
We'd kindly ask you to apply these Inhibitory Efficacy at 12 μM classes: low = under 30%, moderate = from 30% up to 70%, high = 70% and over

Class label required: Cc1ccc(S(=O)(=O)NN2C(=O)C(=Cc3ccc(F)cc3)SC2=S)cc1
low

Next:
Class label required: Cc1ccc(S(=O)(=O)NN2C(=O)C(=Cc3ccc(C(=O)O)cc3)SC2=S)cc1
low

Class label required: CCOc1cc(C=C2SC(=S)N(NS(=O)(=O)c3ccc(C)cc3)C2=O)ccc1O
high

Class label required: O=C(O)COc1ccc(Br)cc1/C=N/Nc1cccc2cccnc12
moderate

Class label required: C[C@@](O)(C#Cc1ccccc1)c1ccc(N2CCCCC2)c(F)c1
moderate

Class label required: C/C(CCC(C)C)=N\N=C(/S)NCc1ccccc1
moderate

Class label required: Cc1ccc(S(=O)(=O)Nc2ccc3nc(N)sc3c2)cc1
low

Class label required: O=C1C=CC(Nc2ccc([N+](=O)[O-])cc2)C1Nc1ccc([N+](=O)[O-])cc1 (stereo not drawn)
moderate

Class label required: CCCC[n+]1c(/C=C2/C=CN(CC)c3ccc(C)cc32)ccc2ccccc21
high

Class label required: O=C1C(=Cc2ccccc2)SC(=S)N1NS(=O)(=O)c1ccccc1
high
